- System: EVSA-T (human breast carcinoma)
- Experimental Protocol: Anti-proliferative activity, Alamar Blue assay, EVSA-T
- Type: cell-based
- Recorded Conditions: Homo sapiens, EVSA-T, 72 h, EVSA-T cells, 72 hours, Alamar Blue; read-out: EVSA-T prolif
pEC50: −log10 of the molar value. Structures can show the parent of a compound that is named as a salt.
Readout: pEC50

INSERT INTO measurements (molecule, quantitative_readout) VALUES
  ('C[C@@H]1CN(CC(=O)N2CC(C)(C)c3ncc(Cc4ccc(F)cc4)cc32)[C@@H](CN2CCC[C@H]2CF)CN1 [Example 30, dihydrochloride]', 8.92),
  ('C[C@@H]1CN(CC(=O)N2CC(C)(C)c3ncc(Cc4ccc(F)cc4)cc32)[C@@H](CN2[C@H](CO)COC[C@H]2C)CN1 [Example 37, dihydrochloride]', 8.55),
  ('C[C@@H]1CN(CC(=O)N2CC(C)(C)c3ncc(Cc4ccc(F)cc4)cc32)[C@@H](CN2CC3CC2CO3)CN1 (stereo partly drawn) [Example 20, dihydrochloride]', 8.55),
  ('C[C@@H]1CN(CC(=O)N2CC(C)(C)c3ncc(Cc4ccc(F)cc4)cc32)[C@@H](CN2C[C@H](C)NC(=O)[C@H]2C)CN1 [Example 48, dihydrochloride]', 8.37),
  ('CC1CC(=O)CCN1C[C@H]1CN[C@H](C)CN1CC(=O)N1CC(C)(C)c2ncc(Cc3ccc(F)cc3)cc21 (single isomer, unassigned) [Example 39, dihydrochloride]', 8.27),
  ('COC[C@]1(C)COCCN1C[C@H]1CN[C@H](C)CN1CC(=O)N1CC(C)(C)c2cnc(Cc3ccc(F)cc3F)cc21 [Example 97, dihydrochloride]', 8.64);
